From: ChEMBL document CHEMBL3627656

Test: Apparent permeability across apical to basolateral side in human Caco2 cells at 10 uM after 1 hr by LC-MS method
Type: ADME, cell-based
Details: Caco-2
result.type: Papp A→B at 1 h, 10 µM (×10⁻⁶ cm/s)

{"structure.notation": "COc1ccccc1Oc1cc([N+](=O)[O-])ccc1NS(C)(=O)=O", "Papp A→B at 1 h, 10 µM [×10⁻⁶ cm/s]": 38.1}

1 = COc1ccc(Oc2cc([N+](=O)[O-])ccc2NS(C)(=O)=O)cc1
2 = COc1cccc(Oc2cc([N+](=O)[O-])ccc2NS(C)(=O)=O)c1
Please state the entry with greater Papp A→B at 1 h, 10 µM among 1 and 2 . Your choice should be expressed through its label.
2

###

Experiment: Apparent permeability across apical to basolateral side in human Caco2 cells at 1 uM after 1 hr by LC-MS method
Assay type: ADME, cell-based
Settings: Caco-2
result.type: Papp A→B at 1 h, 1 µM (×10⁻⁶ cm/s)

{"structure.notation": "COc1ccc(Oc2cc([N+](=O)[O-])ccc2NS(C)(=O)=O)cc1", "Papp A→B at 1 h, 1 µM [×10⁻⁶ cm/s]": 8.3}

1 = COc1ccccc1Oc1cc([N+](=O)[O-])ccc1NS(C)(=O)=O
2 = COc1cccc(Oc2cc([N+](=O)[O-])ccc2NS(C)(=O)=O)c1
Kindly identify the item with the lower Papp A→B at 1 h, 1 µM figure among these two: 1 and 2 Could you answer with the label of the item you picked?
1
(1: 11.2 ×10⁻⁶ cm/s, 2: 42.7 ×10⁻⁶ cm/s)

###

Entries annotated with measured IC50
Biological target: Prostaglandin G/H synthase 1 (Ovis aries, UniProt P05979)
Sequence (P05979 whole entry): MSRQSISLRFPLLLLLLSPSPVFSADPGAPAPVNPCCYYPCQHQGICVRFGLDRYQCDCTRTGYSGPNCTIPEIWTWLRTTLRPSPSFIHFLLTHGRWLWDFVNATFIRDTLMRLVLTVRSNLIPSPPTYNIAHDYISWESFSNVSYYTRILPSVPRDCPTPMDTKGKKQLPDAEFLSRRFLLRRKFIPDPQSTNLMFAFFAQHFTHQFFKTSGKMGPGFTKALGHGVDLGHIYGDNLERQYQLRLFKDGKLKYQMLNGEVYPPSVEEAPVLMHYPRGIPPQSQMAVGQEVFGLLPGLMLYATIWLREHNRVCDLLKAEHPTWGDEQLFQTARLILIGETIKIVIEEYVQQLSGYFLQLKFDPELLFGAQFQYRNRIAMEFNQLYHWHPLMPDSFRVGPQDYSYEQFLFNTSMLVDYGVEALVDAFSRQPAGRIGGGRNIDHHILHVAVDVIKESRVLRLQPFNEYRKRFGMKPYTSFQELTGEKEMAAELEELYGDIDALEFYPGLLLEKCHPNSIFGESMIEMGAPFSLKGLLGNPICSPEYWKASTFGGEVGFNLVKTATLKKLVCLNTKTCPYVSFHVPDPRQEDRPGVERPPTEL
Assay: Inhibition of ovine COX-1 using arachidonic acid after 5 mins by colorimetric method

{"compound": "COc1ccccc1Oc1cc([N+](=O)[O-])ccc1NS(C)(=O)=O", "test.system": "Prostaglandin G/H synthase 1 (Ovis aries, UniProt P05979)", "result.type": "IC50", "experimental.result": "> 100 µM"}
{"compound": "COc1ccc(Oc2cc([N+](=O)[O-])ccc2NS(C)(=O)=O)cc1", "test.system": "Prostaglandin G/H synthase 1 (Ovis aries, UniProt P05979)", "result.type": "IC50", "experimental.result": "> 100 µM"}

Switching to the query record.
Checklist item: IC50 tested on Prostaglandin G/H synthase 1 (Ovis aries, UniProt P05979), entry CS(=O)(=O)Nc1ccc([N+](=O)[O-])cc1Oc1ccccc1 [NIMESULIDE] , value?
> 100 µM
